- Tested on: 922993-354-T-J3-PDC complex spheroids, viability
- Protocol Text: Anticancer human tumor 922993-354-T-J3-PDC patient-derived endometrial carcinoma cell line growth inhibition [GQUAD]
- Condition Set: curve of first compound; second compound 10 µM
Task for the reader: assign each of the following compounds its reported IC50.

Known results for compounds:
INSERT INTO assay_data (compound, target_or_system, measurement_type, observed_result) VALUES
  ('COc1cc(C2c3cc4c(cc3C(OC3OC5COC(C)OC5C(O)C3O)C3COC(=O)C23)OCO4)cc(OC)c1O (centres undefined) + Cc1cnc(CNC(=O)c2c(=O)c3ccc(N4CCCN(C)CC4)nc3n3c2sc2ccccc23)cn1', '922993-354-T-J3-PDC complex spheroids, viability', 'IC50', '< 0.0316 µM'),
  ('CCc1c2c(nc3ccc(O)cc13)-c1cc3c(c(=O)n1C2)COC(=O)[C@]3(O)CC + Cc1cnc(CNC(=O)c2c(=O)c3ccc(N4CCCN(C)CC4)nc3n3c2sc2ccccc23)cn1', '922993-354-T-J3-PDC complex spheroids, viability', 'IC50', '< 0.000999 µM'),
  ('COc1ccc([C@@H](O)c2cc(-c3ncnc4cc(N5CCOCC5)ccc34)c(F)cc2Cl)nn1 + Cc1[nH]c2ccc(F)cc2c1-c1nc2c3cccnc3c3ncccc3c2[nH]1', '922993-354-T-J3-PDC complex spheroids, viability', 'IC50', '> 10 µM');

Continue with the next compound.
Query string: // fetch IC50 given entry CC(=O)O[C@H]1C(=O)[C@@]2(C)[C@H]([C@H](OC(=O)c3ccccc3)[C@]3(O)C[C@H](OC(=O)[C@H](O)[C@@H](NC(=O)c4ccccc4)c4ccccc4)C(C)=C1C3(C)C)[C@]1(OC(C)=O)CO[C@@H]1C[C@@H]2O + CN(C)c1ccc(Nc2c3ccc(NC(=O)CCN4CCCC4)cc3nc3cc(NC(=O)CCN4CCCC4)ccc23)cc1
Result string: > 10 µM

====

- Test system: 922993-354-T-J3-PDC complex spheroids, viability
- Protocol Text: Anticancer human tumor 922993-354-T-J3-PDC cell line growth inhibition [GQUAD];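 further: spheroids exposed to compounds for seven days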;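 on viability, T/C: 100% = DMSO vehicle control viability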
- Condition Set: second compound 0.1 µM; first compound 10 µM; stronger effect = lower value
Measurement Type: viability, T/C (%)
Give bare numbers, in %.

Dear colleague, could you please provide viability, T/C for the compounds listed below?
1. Nc1ccn(C2OC(CO)C(O)C2(F)F)c(=O)n1 (stereo unspecified) + Cc1[nH]c2ccc(F)cc2c1-c1nc2c3cccnc3c3ncccc3c2[nH]1
2. Nc1ccn(C2OC(CO)C(O)C2(F)F)c(=O)n1 (stereo unspecified) + Cc1cnc(CNC(=O)c2c(=O)c3ccc(N4CCCN(C)CC4)nc3n3c2sc2ccccc23)cn1
3. C#Cc1c(F)ccc2cc(O)cc(-c3ncc4c(N5CC6CCC(C5)N6)nc(OCC56CCCN5CC(F)C6)nc4c3F)c12 (stereo unspecified) + Cc1[nH]c2ccc(F)cc2c1-c1nc2c3cccnc3c3ncccc3c2[nH]1
4. COc1ccc([C@@H](O)c2cc(-c3ncnc4cc(N5CCOCC5)ccc34)c(F)cc2Cl)nn1 + Cc1cnc(CNC(=O)c2c(=O)c3ccc(N4CCCN(C)CC4)nc3n3c2sc2ccccc23)cn1
5. O=c1[nH]cc(F)c(=O)[nH]1 + CN(C)c1ccc(Nc2c3ccc(NC(=O)CCN4CCCC4)cc3nc3cc(NC(=O)CCN4CCCC4)ccc23)cc1
6. C=CC(=O)N1CCN(c2nc(=O)n(-c3c(C)ccnc3C(C)C)c3nc(-c4c(O)cccc4F)c(F)cc23)C(C)C1 (stereo unspecified) + Cc1[nH]c2ccc(F)cc2c1-c1nc2c3cccnc3c3ncccc3c2[nH]1

Result string:
1. 22.9
2. 27.2
3. 110
4. 35.6
5. 15.7
6. 98.7

Dear colleague, could you please provide viability, T/C for the compounds listed below?
1. Nc1ccn(C2OC(CO)C(O)C2(F)F)c(=O)n1 (stereo unspecified) + CN(C)c1ccc(Nc2c3ccc(NC(=O)CCN4CCCC4)cc3nc3cc(NC(=O)CCN4CCCC4)ccc23)cc1
2. COc1cc(C2c3cc4c(cc3C(OC3OC5COC(C)OC5C(O)C3O)C3COC(=O)C23)OCO4)cc(OC)c1O (stereo unspecified) + Cc1cnc(CNC(=O)c2c(=O)c3ccc(N4CCCN(C)CC4)nc3n3c2sc2ccccc23)cn1

Result string:
[11.9, 39.9]

Dear colleague, could you please provide viability, T/C for the compounds listed below?
1. Cc1cccc(N(C)C(=O)C2C(O)CCN2c2nc(C)cc(C(F)(F)F)c2C#N)c1 (stereo unspecified) + Cc1cnc(CNC(=O)c2c(=O)c3ccc(N4CCCN(C)CC4)nc3n3c2sc2ccccc23)cn1
2. COc1cccc2c1C(=O)c1c(O)c3c(c(O)c1C2=O)CC(O)(C(=O)CO)CC3OC1CC(N)C(O)C(C)O1 (stereo unspecified) + CN(C)c1ccc(Nc2c3ccc(NC(=O)CCN4CCCC4)cc3nc3cc(NC(=O)CCN4CCCC4)ccc23)cc1
3. O=c1[nH]cc(F)c(=O)[nH]1 + Cc1cnc(CNC(=O)c2c(=O)c3ccc(N4CCCN(C)CC4)nc3n3c2sc2ccccc23)cn1

Result string:
43.9
34.1
60.1

// data source = PubChem BioAssay AID2060489
